# Test system: CAKI-1;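 further: growth inhibition of CAKI-1 cells, measured by a cell viability assay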
# protocol text: cells
# Format: functional, cell-based
# condition parameters: Homo sapiens
# Description: SANGER: Inhibition of human CAKI-1 cell growth in a cell viability assay.
property: IC50

Record excerpt, results attached:
molecule | reading
O=C1NC(=O)c2c1c(-c1ccccc1Cl)cc1[nH]c3ccc(O)cc3c21 | > 2 µM
CC1=C(/C=C/C(C)=C/C=C/C(C)=C/C(=O)O)C(C)(C)CCC1 [TRETINOIN] | > 10 µM
O=S(=O)(O)c1ccc2cc(/N=N/c3cc(S(=O)(=O)O)c4cccnc4c3O)ccc2c1 | > 16 µM

Next, consider the following molecule.
Q: Entry CN(C)CCOc1ccc(-c2nc(-c3ccncc3)c(-c3ccc4c(c3)CC/C4=N\O)[nH]2)cc1 [SB590885] : reported IC50 = ?
A: > 5 µM

###

# System: MC-CAR;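 further: growth inhibition of the human MC-CAR cell line, read out by a cell viability assay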
# protocol text: cells
# Assay type: functional, cell-based, Homo sapiens
# condition parameters: Homo sapiens, MC-CAR
# Description: SANGER: Inhibition of human MC-CAR cell growth in a cell viability assay.
pIC50: −log10 of the molar value.
In this section we review reported pIC50 values for a set of compounds.

compound | property | reading
Nc1ccccc1NC(=O)c1ccc(CNC(=O)OCc2cccnc2)cc1 [ENTINOSTAT] | pIC50 | < 5.30
C[C@@H](Oc1cc(-c2cnn(C3CCNCC3)c2)cnc1N)c1c(Cl)ccc(F)c1Cl [CRIZOTINIB] | pIC50 | < 5.70

Q: Find the recorded pIC50 belonging to OC[C@H](Cc1ccccc1)Nc1nc(Oc2ccc3c(c2)CCC3)nc2c1ncn2Cc1ccc(-c2ccccc2)cc1 and report it.
A: < 4.99

###

# Tested on: BCPAP;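 further: growth inhibition of BCPAP cells, read out in a cell viability assay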
# protocol text: cells
# Format: functional, cell-based
# condition parameters: Homo sapiens
# Description: SANGER: Inhibition of human BCPAP cell growth in a cell viability assay.
We begin with a simple list: items and their reported IC50.

Previously resolved entries follow.
compound smiles | assay target | IC50
OC[C@H](Cc1ccccc1)Nc1nc(Oc2ccc3c(c2)CCC3)nc2c1ncn2Cc1ccc(-c2ccccc2)cc1 | BCPAP | > 10.2 µM
CC1=C(/C=C/C(C)=C/C=C/C(C)=C/C(=O)O)C(C)(C)CCC1 | BCPAP | > 10 µM
CC1(C)CCC(c2ccc(Cl)cc2)=C(CN2CCN(c3ccc(C(=O)NS(=O)(=O)c4ccc(N[C@H](CCN5CCOCC5)CSc5ccccc5)c(S(=O)(=O)C(F)(F)F)c4)cc3)CC2)C1 | BCPAP | > 2 µM

The record that follows has no IC50 shown yet.
Q: Given Cc1ccc(-n2nc(C(C)(C)C)cc2NC(=O)Nc2ccc(OCCN3CCOCC3)c3ccccc23)cc1 , state its recorded IC50.
A: > 10 µM

###

# Tested on: Ramos-2G6-4C10;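 further: growth inhibition of the cell line, measured by a cell viability read-out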
# protocol text: cells
# Assay type: functional, cell-based, Homo sapiens
# condition parameters: Homo sapiens, Ramos-2G6-4C10
# Description: SANGER: Inhibition of human Ramos-2G6-4C10 cell growth in a cell viability assay.
pIC50: −log10 of the molar value.
property: pIC50

compound smiles | property | reading
NC(=O)c1cccc(-c2cc(Nc3ccc(OC(F)(F)F)cc3)ncn2)c1 | pIC50 | < 5.89
C[C@@H](Oc1cc(-c2cnn(C3CCNCC3)c2)cnc1N)c1c(Cl)ccc(F)c1Cl | pIC50 | < 5.70

Read the next record carefully.
Q: So what does the record say about pIC50 for COc1ccc(N(C(=O)Oc2c(C)cccc2C)c2ccnc(Nc3ccc(N4CCN(C)CC4)cc3)n2)c(OC)c1 ?
A: < 5.29

###

# Test system: DOK;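 further: cell viability assay read-out, values reflect inhibition of cell growth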
# protocol text: cells
# Type: functional, cell-based
# condition parameters: Homo sapiens
# Description: SANGER: Inhibition of human DOK cell growth in a cell viability assay.
pIC50: −log10 of the molar value.
property: pIC50

compound smiles | reading
COC(=O)[C@H](CCSC)NC(=O)c1ccc(NC[C@@H](N)CS)cc1-c1ccccc1 | < 5.99
Cc1ccc(-n2nc(C(C)(C)C)cc2NC(=O)Nc2ccc(OCCN3CCOCC3)c3ccccc23)cc1 | < 5.00

Would you kindly look at the next entry?
Q: Quick check: pIC50 of CC1(C)CCC(c2ccc(Cl)cc2)=C(CN2CCN(c3ccc(C(=O)NS(=O)(=O)c4ccc(N[C@H](CCN5CCOCC5)CSc5ccccc5)c(S(=O)(=O)C(F)(F)F)c4)cc3)CC2)C1 ?
A: < 5.70

###

# Tested on: CTV-1;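 further: growth inhibition of the cell line, read out with a cell viability assay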
# protocol text: cells
# Assay type: functional, cell-based, Homo sapiens
# condition parameters: Homo sapiens, CTV-1
# Description: SANGER: Inhibition of human CTV-1 cell growth in a cell viability assay.
property: IC50

Solved entries (count: 2):
compound | reading
COC(=O)[C@H](CCSC)NC(=O)c1ccc(NC[C@@H](N)CS)cc1-c1ccccc1 | > 1.02 µM
CN(C)CCOc1ccc(-c2nc(-c3ccncc3)c(-c3ccc4c(c3)CC/C4=N\O)[nH]2)cc1 | > 5 µM

Q: IC50 lookup needed for C=CC(=O)N1CCCC(Nc2nc(Nc3ccc(N(C)C(=O)CC)cc3)nc3[nH]cnc23)C1 (stereo not drawn) , thanks.
A: > 10.2 µM

###

# Test system: HSC-2
# protocol text: cells
# Type: functional, cell-based
# condition parameters: Homo sapiens
# Description: SANGER: Inhibition of human HSC-2 cell growth in a cell viability assay.
pIC50: −log10 of the molar value.
property: pIC50

Q: Dear colleague, I am looking for the recorded pIC50 of the following molecule: OC[C@H](Cc1ccccc1)Nc1nc(Oc2ccc3c(c2)CCC3)nc2c1ncn2Cc1ccc(-c2ccccc2)cc1
A: < 4.99

Q: Could you tell me which pIC50 is on file for Cc1ccc(-n2nc(C(C)(C)C)cc2NC(=O)Nc2ccc(OCCN3CCOCC3)c3ccccc23)cc1 [DORAMAPIMOD] ?
A: < 5.00

Q: Which value of pIC50 has been reported for CS(=O)(=O)N1CCN(Cc2cc3nc(-c4cccc5[nH]ncc45)nc(N4CCOCC4)c3s2)CC1 [PICTILISIB] in the records?
A: < 5.40

###

# Tested on: NCI-N87
# protocol text: cells
# Type: functional, cell-based
# condition parameters: Homo sapiens
# Description: SANGER: Inhibition of human NCI-N87 cell growth in a cell viability assay.
pIC50: −log10 of the molar value.
Entries and their pIC50 values follow.

Observe how each entry below is paired with its result.
compound | pIC50
C[C@@H](Oc1cc(-c2cnn(C3CCNCC3)c2)cnc1N)c1c(Cl)ccc(F)c1Cl [CRIZOTINIB] | < 5.70
COC(=O)[C@H](CCSC)NC(=O)c1ccc(NC[C@@H](N)CS)cc1-c1ccccc1 | < 5.99
CO[C@@H]1[C@H](N(C)C(=O)c2ccccc2)C[C@H]2O[C@]1(C)n1c3ccccc3c3c4c(c5c6ccccc6n2c5c31)C(=O)NC4 [MIDOSTAURIN] | < 6.29

Switching to the query record.
Q: What reported pIC50 corresponds to O=C1NC(=O)c2c1c(-c1ccccc1Cl)cc1[nH]c3ccc(O)cc3c21 on NCI-N87?
A: < 5.70

###

# Tested on: TE-12
# protocol text: cells
# Assay type: functional, cell-based, Homo sapiens
# condition parameters: Homo sapiens, TE-12
# Description: SANGER: Inhibition of human TE-12 cell growth in a cell viability assay.
pIC50: −log10 of the molar value.
property: pIC50

Q: Request the reported pIC50 associated with O=C(NCCCNc1nc(Nc2cccc(NC(=O)N3CCCC3)c2)ncc1I)c1cccs1
A: < 5.30

Q: Fill blank: measured pIC50 of the compound O=C1NC(=O)c2c1c(-c1ccccc1Cl)cc1[nH]c3ccc(O)cc3c21 is ____.
A: < 5.70

Q: Find the recorded pIC50 belonging to O=S(=O)(O)c1ccc2cc(/N=N/c3cc(S(=O)(=O)O)c4cccnc4c3O)ccc2c1 and report it.
A: < 4.80

Q: Endpoint output: pIC50 of NC1(c2ccc(-c3nc4ccn5c(=O)[nH]nc5c4cc3-c3ccccc3)cc2)CCC1 . Value?
A: < 5.40

Q: Report pIC50 for CC1(C)CCC(c2ccc(Cl)cc2)=C(CN2CCN(c3ccc(C(=O)NS(=O)(=O)c4ccc(N[C@H](CCN5CCOCC5)CSc5ccccc5)c(S(=O)(=O)C(F)(F)F)c4)cc3)CC2)C1 please.
A: < 5.70

###

# Test system: MPP-89
# protocol text: cells
# Format: functional, cell-based, Homo sapiens
# condition parameters: Homo sapiens, MPP-89
# Description: SANGER: Inhibition of human MPP-89 cell growth in a cell viability assay.
pIC50: −log10 of the molar value.
property: pIC50

Previously resolved entries follow.
molecule | reading
O=S(=O)(O)c1ccc2cc(/N=N/c3cc(S(=O)(=O)O)c4cccnc4c3O)ccc2c1 | < 4.80
C[C@@H](Oc1cc(-c2cnn(C3CCNCC3)c2)cnc1N)c1c(Cl)ccc(F)c1Cl [CRIZOTINIB] | < 5.70

Turning now to a further molecule:
Q: Recorded pIC50 for NC1(c2ccc(-c3nc4ccn5c(=O)[nH]nc5c4cc3-c3ccccc3)cc2)CCC1 [MK-2206] , please?
A: < 5.40

###

Property: pIC50; scope: individual compounds
# Tested on: SJSA-1;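 further: growth inhibition of human SJSA-1 cells, read out through a cell viability measurement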
# protocol text: cells
# Format: functional, cell-based, Homo sapiens
# condition parameters: Homo sapiens, SJSA-1
# Description: SANGER: Inhibition of human SJSA-1 cell growth in a cell viability assay.
pIC50: −log10 of the molar value. Where a SMILES comes first, the peptide text is derived from it. The star is where a group is joined. Cbz = O=C(OCc1ccccc1)*

Below, 4 compounds whose answers are already recorded.
compound | assay target | pIC50
CC(C)C[C@@H](C=O)NC(=O)[C@H](CC(C)C)NC(=O)[C@H](CC(C)C)NC(=O)OCc1ccccc1 [MG-132] (Cbz-Leu-Leu-Leu-aldehyde) | SJSA-1 | < 6.00
Cc1ccc(NC(=O)c2ccc(CN3CCN(C)CC3)cc2)cc1Nc1nccc(-c2cccnc2)n1 | SJSA-1 | < 5.70
Cc1ccc(C(=O)Nc2ccc(CN3CCN(C)CC3)c(C(F)(F)F)c2)cc1C#Cc1cnc2cccnn12 | SJSA-1 | < 6.29
C=CC(=O)N1CCCC(Nc2nc(Nc3ccc(N(C)C(=O)CC)cc3)nc3[nH]cnc23)C1 (stereo not given) | SJSA-1 | < 4.99

# context switch: different compound, same pIC50
Q: Quick one: pIC50 of CC1=C(/C=C/C(C)=C/C=C/C(C)=C/C(=O)O)C(C)(C)CCC1 ?
A: < 5.00
